Entry source: the supplement of paper PMC10201428

Overview of recorded relative integration efficiency (log2) for various sequences
test system: VchCAST RNA-guided transposition machinery (E. coli BL21(DE3) host, lacZ target); experiment: relative integration efficiency (T-RL orientation) vs wild-type transposon end (log2 (normalized fold change)); transposon end mutated: right end (5 bp flank + 75 bp right end); higher = more efficient transposition
reportedProperty: relative integration efficiency (log2)

ACATTTGTGTATACAACCATAAAATGATAATTACACCCATAAATTGATAATTATCACACCCATAAATTGATATTGCCTCTGATCATAGTCAGACCAACATTGCTACGACCCGTATTCGCACCGACAC: 0.00813
ACATTTGTTGATACAACCATAAAATGGTAATTCCACCCATAAATTGATAATTATCACACCCAATTTAACTATAACGCTCTGATCATAGTCAGACCAACATTGCTACGACCCGTATTCGCACCGACAC: -1.45
ACATTTGTTGATAGTTGCATAAAATGATAATTACACCCATAAATTGATAATTATCACACCCATAAATTGATATTGCCTCTGATCATAGTCAGACCAACATTGCTACGACCCGTATTCGCACCGACAC: -1.07
ACATTTGTTGATACAACCATAAAATCATAATTACCCCCATAAATTGATAATTATCCCACCCAATTTAACTATAACGCTCTGATCATAGTCAGACCAACATTGCTACGACCCGTATTCGCACCGACAC: -0.611
ACATTTGTTGATACAACCATAAAATGATAATTCCACCCCTAAATTGATAATTATCACACCCAATTTAACTATAACGCTCTGATCATAGTCAGACCAACATTGCTACGACCCGTATTCGCACCGACAC: -3.1

* * *

test system: VchCAST RNA-guided transposition machinery (E. coli BL21(DE3) host, lacZ target); test: relative integration efficiency (T-RL orientation) vs wild-type transposon end (log2 (normalized fold change)); transposon end mutated: right end (5 bp flank + 75 bp right end); higher = more efficient transposition
Overview of recorded relative integration efficiency (log2) for various sequences
reportedProperty: relative integration efficiency (log2)

ACATTTGTTGATACATGCATAAAATGATAATTACACCCATAAATTGATAATTATCACACCCATAAATTGATATTGCCTCTGATCATAGTCAGACCAACATTGCTACGACCCGTATTCGCACCGACAC: -0.321
ACATTTGTTGATACAACCATAAAATGATAATTACTCTGATCATAGTCAGCACCCATAAATTGATAATTATCAGTGGGTATTTAACTATAACGACCAACATTGCTACGACCCGTATTCGCACCGACAC: -2.61
ACATTTGTTGATACAACCATAAACGTCTAATTACACCCATAAATTGATAATTATCACACCCATAAATTGATATTGCCTCTGATCATAGTCAGACCAACATTGCTACGACCCGTATTCGCACCGACAC: -2.72
ACATTTGTTGATACAACCATAAAATGATAATTACACCCCGCCATTGATAATTATCACACCCATAAATTGATATTGCCTCTGATCATAGTCAGACCAACATTGCTACGACCCGTATTCGCACCGACAC: -3.5
ACATTTGTTGATACAACCATAAAATGATACACCCATAAATTGATAATTATCACACCCATAAATTGATATTGCCTCTGATCATAGTCAGACCAACATTGCTACGACCCGTATTCGCACCGACACTGAC: -4.54
ACATTTGTTGATACAACCATAAAATGATAATTACACCCATCAATTGATAATTATCACACCCCATTTAACTATAACGCTCTGATCATAGTCAGACCAACATTGCTACGACCCGTATTCGCACCGACAC: -1.68
ACATTTGTTGATACAACCATAAAATGATAATTACACCCATAAATTGATAATTATCACACCCATAAATTGATATTGCAGAGGATCATAGTCAGACCAACATTGCTACGACCCGTATTCGCACCGACAC: 0.0202
ACATTTGTTGATACAACCATAAAAGGATCATTACCCCCATCAATTGATAATTATCCCACCCAATTTAACTATAACGCTCTGATCATAGTCAGACCAACATTGCTACGACCCGTATTCGCACCGACAC: -3.59
ACATTTGTTGATACAACCATAAAATGATAATTAATAACACCCATAAATTGATAATTATCAACAAACGCCCGGTCGCGGTACTCTGATCATAGTCAGACCAACATTGCTACGACCCGTATTCGCACCG: -2.52
ACATTTGTTGATACAACCATAAAAGGATAATTACCCCCATCAATTGATAATTATCACACCCAATTTAACTATAACGCTCTGATCATAGTCAGACCAACATTGCTACGACCCGTATTCGCACCGACAC: -2.86
